Assay: GFP drop in mixed WT/humanized-ribosome E. coli culture – GFP/RFP fluorescence, OD600, single point, bacterial rRNA inhibitor project, primary screen (AID 720706)
Details: E. coli WT GFP vs humanized-ribosome RFP mutants, 24 h; measured here: OD600 growth, DMSO median 0, no signal -100
About 5,500 (1.6%) of roughly 350,000 compounds were called active. The full list was thinned out, with actives kept by preference.
measuredEndpoint: OD600 change

INSERT INTO measurements (compound, result) VALUES
  ('O=C(c1cccs1)N(Cc1cc2ccccc2[nH]c1=O)CC1CCCO1 (configuration not stated)', '-2.27%'),
  ('Cc1cc(C)c2cc(CN(Cc3cccs3)Cc3nnnn3CC3CCCO3)c(=O)[nH]c2c1 (configuration not stated)', '-22.2%'),
  ('COc1ccc(CN(C)C[C@@H]2OCCCC[C@H](C)Oc3ccc(NS(=O)(=O)c4cccs4)cc3C(=O)N([C@H](C)CO)C[C@@H]2C)cc1', '-7.75%'),
  ('O=C(NC1CCN(C(=S)Nc2ccc(Cl)cc2)CC1)C1CCCCC1', '11.2%'),
  ('Cc1[nH]c2ccccc2c1/C=C(/C#N)C(=O)NC(C)C', '5.32%'),
  ('CNC[C@H]1OCCCC[C@H](C)Oc2ccc(NC(=O)Nc3ccc(C(F)(F)F)cc3)cc2C(=O)N([C@H](C)CO)C[C@@H]1C', '-74.3%'),
  ('CC(C)NC(=O)/C(C#N)=C\c1ccc(N(C)C)c(Br)c1', '-12.4%'),
  ('CO[C@@H]1CN(C)C(=O)c2ccc(NC(=O)C3CC3)cc2OC[C@H](C)N(C(C)=O)C[C@H]1C', '2.36%'),
  ('C[C@H](CO)N1C[C@H](C)[C@H](CN(C)S(=O)(=O)c2cccs2)Oc2c(NS(=O)(=O)c3ccc(Cl)cc3)cccc2C1=O', '-6.49%'),
  ('C[C@H](CO)N1C[C@H](C)[C@H](CN(C)CC2CCCCC2)Oc2ccc(NC(=O)CCCCCC(=O)Nc3ccccc3N)cc2C1=O', '1.29%'),
  ('O=C(C1CCOCC1)N1C[C@H]2[C@@H](c3ccccc31)[C@@H](CO)N2Cc1ccccc1', '0.79%'),
  ('CCC(=O)N(C)C[C@@H]1Oc2ncc(-c3ccccc3OC)cc2C(=O)N([C@@H](C)CO)C[C@@H]1C', '0.66%'),
  ('CN(c1ccccc1)S(=O)(=O)c1ccc(C(=O)NCCc2ccccc2)cc1', '-28.7%'),
  ('C[C@@H]1CN([C@H](C)CO)C(=O)c2cc(NC(=O)CCN3CCOCC3)ccc2O[C@H]1CN(C)Cc1ccc(Oc2ccccc2)cc1', '2.21%'),
  ('CC(C)(C)C(=O)/C(C#N)=C/c1ccc(O)cc1', '5.69%'),
  ('CC(C)C#Cc1ccc2c(c1)O[C@@H](CN(C)C(=O)CN(C)C)[C@@H](C)CN([C@H](C)CO)S2(=O)=O', '1.18%'),
  ('Cc1nc2ccccc2nc1N/N=C/c1ccc(O)cc1O', '-1%'),
  ('CC(=O)C(CC(=O)N1CCCC1)C(=O)Nc1ccc(Cl)cc1 (configuration not stated)', '9.42%'),
  ('CN(C)CC(=O)N1[C@H](C#N)[C@H](c2ccccc2-c2cccc(C(=O)N(C)C)c2)[C@@H]1CO', '9.94%'),
  ('O=S(=O)([N-]c1nc2ccccc2nc1-[n+]1ccc(Cc2ccccc2)cc1)c1ccc(Br)s1', '-18.6%'),
  ('C[C@@H]1CN([C@H](C)CO)C(=O)Cc2cc(NS(=O)(=O)c3cn(C)cn3)ccc2O[C@@H]1CN(C)C(=O)Nc1ccccc1', '7.32%'),
  ('CCc1nc2ccccc2c(C(=O)NCc2ccc(OC)cc2)c1C', '-5.87%'),
  ('CCCNC(=O)N1C[C@H](C)[C@@H](OC)CN(C)C(=O)c2ccc(NS(=O)(=O)CC(F)(F)F)cc2OC[C@@H]1C', '1.48%'),
  ('Cc1n[nH]c(=O)nc1N/N=C/c1cccs1', '-10.6%'),
  ('COC(=O)[C@@H]1[C@@H](CO)[C@@H]2Cn3c(ccc(-c4ccccc4F)c3=O)[C@@H]2N1CC1CCOCC1', '-6.47%'),
  ('CN(c1ccccc1)S(=O)(=O)c1ccc(C(=O)NCc2cccnc2)cc1', '-21.8%'),
  ('C[C@@H]1CN([C@H](C)CO)C(=O)c2cc(-c3cccc(F)c3)cnc2O[C@@H]1CN(C)C', '6.45%'),
  ('CCOc1ccc(C(C)=O)cc1COC(=O)c1cnc(Cl)c(Cl)c1', '3.34%'),
  ('CC(=O)N1CCC(N(C(=O)Nc2ccc(Cl)cc2)C(C)C)CC1', '-18%'),
  ('Cc1ccc(C)c(NC(=O)c2ccc3nccnc3c2)c1', '7.77%'),
  ('Cc1ccc(C)c(NC(=O)c2cc(-c3cc(C)cc(C)c3O)n[nH]2)c1', '-6.64%'),
  ('CC(C)NC(=O)Nc1cccc2c1O[C@H](CN(C)Cc1ccccc1)[C@H](C)CN([C@H](C)CO)C2=O', '10.7%'),
  ('Cc1cccc(NC(=O)c2ccc(S(=O)(=O)N(C)c3ccccc3)cc2)n1', '-25%'),
  ('COc1ccc2c3c(n(C)c2c1)[C@@H](CO)N(C(=O)CN1CCOCC1)CC31CCN(Cc2ccncc2)CC1', '2.53%'),
  ('O=C(Nc1cccc(Cl)c1)N1C[C@@H]2[C@H](c3ccccc31)[C@H](CO)N2C(=O)C1CC1', '-75.7%'),
  ('Cc1ccccc1-c1ccc([C@H]2[C@@H](CO)N3C(=O)CN(C(=O)c4cccnc4)C[C@@H]23)cc1', '8.18%'),
  ('O=C(C[C@H]1C[C@H]2c3cc(NC(=O)NC4CCCC4)ccc3O[C@H]2[C@@H](CO)O1)NCc1ccc(-c2ccccc2)cc1', '-6.28%');

All values here come from PubChem BioAssay AID720706.
